# Lookup of reported growth keyed by entry
# Tested on: HL-60(TB) leukemia
# procedure-details: NCI-60 one-dose screen, 48 h (100 = growth as untreated, 0 = no growth, -100 = all killed)
# applied-conditions: 10 µM unless noted
The panel holds about 83,000 compounds, 20% with a hit somewhere; the sample as a whole holds those more often.

structure-string	growth (%)
Cc1ccc(-n2c(C)nn3c(=O)c4c5c(sc4nc23)CN(C)CC5)cc1	96.7
O=C(Cc1ccc(F)c(Cl)c1)Nc1cc(C2(C(F)(F)F)CC2)nn1Cc1ccccc1	100
O=[N+]([O-])c1ccc(/C=C/C=C/c2ccc(S(=O)(=O)F)cc2)c(Cl)c1	91.9
COc1ccc(OC)c(/C=C(/C)[N+](=O)[O-])c1	62.3
O=C(N=c1n(-c2ccccc2)nc2n1CCN2C1=NCCN1)c1ccc(Cl)cc1	95.8

* * *

# Test system: HL-60(TB) leukemia
# procedure-details: NCI-60 one-dose screen, 48 h
# applied-conditions: 10 µM unless noted
The panel holds about 83,000 compounds, 20% with a hit somewhere; the sample as a whole holds those more often. Activity calls are given as the source filed them. How the source made its calls: active means growth percent below 10; inactive means the rest.
Classes used: 1 (yes) (active), 0 (no) (inactive)

compound	class
Oc1ccc(CNNc2ccnc3c(O)cccc23)c2cccnc12	1 (yes)
O=C(Nc1cnc(Nc2ccc(N3CCOCC3)nc2)nc1Oc1ccc(C(F)(F)F)cc1)c1ccncc1	0 (no)
CC(=O)C1Cc2ccccc2C1=O (stereo unspecified)	0 (no)
Cc1cccc(-n2c(C)nc3ccc(NC(=O)NCCCl)cc3c2=O)c1	0 (no)
Nc1c(C(=O)NC2CCCCC2)sc2nc3c(cc12)C(=O)CCC3	0 (no)
COc1ccc(-n2c(C(O)c3ccccc3)n[nH]c2=S)cc1 (stereo unspecified)	0 (no)

* * *

# System: HL-60(TB) leukemia
# procedure-details: NCI-60 one-dose screen, 48 h (100 = growth as untreated, 0 = no growth, -100 = all killed)
# applied-conditions: 10 µM unless noted
Compounds without any hit were thinned out: in the full panel of roughly 83,000, 20% have a hit. The source made the active and inactive calls. How the source made its calls: active means growth percent below 10; inactive means the rest.

compound	growth
O=C(Cn1c[n+](CC(=O)c2ccc(-c3ccccc3)cc2)c2ccccc21)Nc1cccc2cccnc12	-37.2% (active)
C=C(CNCCc1ccc(O)cc1)[C@@H]1CC[C@]2(CO)CC[C@]3(C)[C@H](CC[C@@H]4[C@@]5(C)CCC(NCCc6ccc(O)cc6)C(C)(C)[C@@H]5CC[C@]43C)[C@@H]12 (stereo partly drawn)	-65.2% (active)
COc1ccc(/C=C2\CN(C(=O)C(Cl)Cl)C/C(=C\c3ccc(OC)c(OC)c3)C2=O)cc1OC	-11.4% (active)
CCOC(=O)CN(c1sc(C)c(C)c1C(=O)OCC)S(=O)(=O)c1ccc(C)cc1	94.2% (inactive)
COc1ccc(-c2nc3ccc(-c4nc5ccc(N6CCN(c7ccccc7)CC6)cc5[nH]4)cc3[nH]2)cc1OC	16.1% (inactive)
Cc1cc(=O)n(C(=O)Nc2ccccc2Cl)c2cc(O)ccc12	107% (inactive)
Cc1ccccc1CNC(=O)C1CN(c2ccc(Cl)cc2)N(c2ccc(Cl)cc2)C1=O (stereo not drawn)	94.7% (inactive)
O=C(NCCN1CCOCC1)c1cncnc1Nc1ccc2c(ccn2Cc2ccccn2)c1	99.7% (inactive)

* * *

# Tested on: HL-60(TB) leukemia
# procedure-details: NCI-60 one-dose screen, 48 h
# applied-conditions: 10 µM unless noted
Compounds without any hit were thinned out: in the full panel of roughly 83,000, 20% have a hit. The source made the active and inactive calls. Rule for the calls: active = growth percent below 10; inactive = the rest.
Classes used: active, inactive

compound	experimental-system	class
Cc1c(O)cc(-c2cnc(N/N=C/c3ccccc3)s2)c(O)c1C	HL-60(TB) leukemia	inactive
O=C1Nc2ccccc2C1=NC1CCCCC1	HL-60(TB) leukemia	inactive
COc1ccc2c(c1)C=CC(C#N)N2C(=O)c1ccccc1 (configuration not stated)	HL-60(TB) leukemia	active
S=c1nn[nH]n1C1CCCCC1	HL-60(TB) leukemia	inactive
N#CC(=C1SCS1)[N+](=O)[O-]	HL-60(TB) leukemia	active
COc1cc(OC)c(C(=O)/C=C/c2ccc(C#N)cc2)c(OC)c1	HL-60(TB) leukemia	active
O=C(Nc1ncccc1OCc1ccccc1)NC1CCCCCC1	HL-60(TB) leukemia	inactive
O=C1C(Br)=CC2C1C1C3CCC3C2(Br)C12OCCO2 (configuration not stated)	HL-60(TB) leukemia	active
COc1ccc(C/C(C)=C(\c2ccc(Cl)cc2)c2ccc(OCCN3CCCCCC3)cc2)cc1	HL-60(TB) leukemia	inactive
CN(CCNc1ccc(C(=N)N)cc1)c1ccc(C(=N)N)cc1	HL-60(TB) leukemia	inactive
O=C1/C(=C/c2ccccc2)Oc2ccc(O)c(I)c21	HL-60(TB) leukemia	inactive
COC(=O)[C@H]1CCCN1C(=O)[C@H]1CCCN1C(=O)[C@H](Cc1c[nH]c2ccccc12)NC(=S)Nc1cc(C(F)(F)F)cc(C(F)(F)F)c1	HL-60(TB) leukemia	inactive
C=C1C(=O)O[C@H]2[C@H]1CC/C(COC(=O)N[C@H](Cc1c[nH]c3ccccc13)C(=O)OC)=C\CC[C@@]1(C)O[C@@H]21	HL-60(TB) leukemia	active
COc1ccc2c(c1)C(=Nc1cc(OC)c(OC)c(OC)c1)C(=O)N2	HL-60(TB) leukemia	inactive
CC1=CC=C(NC(=O)/C=C/c2ccccc2)CC1Nc1nccc(-c2cccnc2)n1 (configuration not stated)	HL-60(TB) leukemia	active
CNC(=O)c1cc(Oc2ccc(NC(=O)Nc3ccc(Cl)c(OC(F)(F)F)c3)c(F)c2)ccn1	HL-60(TB) leukemia	inactive
CC(=O)c1ccc(-n2c(-c3cc(-c4ccsc4)n[nH]3)n[nH]c2=S)cc1	HL-60(TB) leukemia	inactive
CC(=O)OC1Oc2ccccc2-c2oc(=O)c(-c3ccc(F)cc3)cc21 (configuration not stated)	HL-60(TB) leukemia	inactive
CC(=O)OC1CC2CCC1(C)C2(C)C (configuration not stated)	HL-60(TB) leukemia	inactive
OC1(c2ccccc2)c2ccccc2N(c2ccccc2)c2ccc(Cl)cc21 (configuration not stated)	HL-60(TB) leukemia	active
C=C[C@@H]1C[C@H](O)Cc2c(C)cc(C)cc2N1	HL-60(TB) leukemia	active
COc1ccc(CN2CCN(Cc3ccccc3)CC2)c(O)c1	HL-60(TB) leukemia	inactive

* * *

# Test system: HL-60(TB) leukemia
# procedure-details: NCI-60 one-dose screen, 48 h (100 = growth as untreated, 0 = no growth, -100 = all killed)
# applied-conditions: 10 µM unless noted
This is part of a sample that, as a whole, favours compounds with a hit. Of some 83,000 tested, about 20% had one in any assay.
// not satisfied strictly below 20% in growth; satisfied otherwise

compound	class
Nc1ccc(C(OC(=O)c2cc3ccccc3c(Cc3c(O)c(C(=O)OC(c4ccc(N)cc4)(c4ccc(N)cc4)c4ccc(N)cc4)cc4ccccc34)c2O)(c2ccc(N)cc2)c2ccc(N)cc2)cc1	not satisfied
C=C(C)[C@@H]1CC[C@]2(CN)CC[C@]3(C)[C@H](CC[C@@H]4[C@@]5(C)CCCNC(C)(C)[C@@H]5CC[C@]43C)[C@@H]12	not satisfied
CC1(C)CC(C(=O)OCCCCCCCCCCC[P+](c2ccccc2)(c2ccccc2)c2ccccc2)C(C)(C)N1O (stereo unspecified)	not satisfied
CCCCCCCCCCCC(=O)[O][Sn]([CH2]CCC)([CH2]CCC)[CH2]CCC	not satisfied
COC1=CC(c2ccc[nH]2)=N/C1=C\c1[nH]c(C)c(C(=O)CCC(=O)Oc2ccc3c(c2)CCC2C3CC[C@]3(C)C(=O)CC[C@@H]23)c1C (stereo partly specified)	satisfied
COc1ccc(-c2cc(-c3ccc(Nc4nc(Nc5ccc(Cl)cc5)nc(Nc5ccc(Cl)cc5)n4)cc3)no2)cc1	not satisfied
CC(=O)c1ccc(N=C(C#N)C2=C(O)c3ccccc3C2=O)cc1	satisfied
CCN1/C(=C/C(C)=C/c2sc3ccc4ccccc4c3[n+]2CC)Sc2ccc3ccccc3c21	not satisfied
Cc1cccc(NC(=O)CSc2nc3ccccc3[nH]2)c1	satisfied
Nc1c(C(=O)Nc2ccccn2)sc2nc3c(cc12)CCCC3	not satisfied
CN=C(N)N/N=C(\C)c1ccc2c(c1)Cc1ccccc1-2	not satisfied
CC(C)CSc1nc(-c2ccc(F)cc2)c(C#N)c(N2CCCCC2)n1	satisfied
CC(=O)O[C@H]1Cc2c([nH]c3ccccc23)[C@@H](c2ccc(Cl)cc2)N1C(=O)CCNC(C)(C)C	not satisfied
S=c1[nH]c2cc(Cl)ccc2s1	satisfied
O=C1C(Nc2ccccn2)=C(I)C(=O)c2ncccc21	not satisfied
CCCCCCCCCCCCCCCC1=NC(C)(C)CN1C(C)C	not satisfied
COc1cc(/C=N/NC(=O)Cn2c(C(C)C)nc3ccccc32)ccc1O	satisfied
CCOC(=O)c1cn2ncnc(Oc3ccc(NC(=O)NC4CC4)c(Cl)c3)c2c1C	satisfied
COc1cc(/C=C\C(C)=N\Nc2ccccc2)ccc1O	not satisfied
CC(=O)NCCN	satisfied
CC(=O)OC[Si](C)(C)c1ccccc1	satisfied
CCCCCCCCCCCCCCCC[n+]1cccc(C#N)c1	satisfied
Clc1ccc(N2N=C(c3cccc(Nc4ccncc4)c3)CC2c2ccc3c(c2)OCO3)cc1 (stereo unspecified)	satisfied
CN(C)C(=O)SC1=C(c2c(Cl)cccc2Cl)C(=O)c2ccccc21	not satisfied
O=C1C=CC(=O)N1c1ccc(O)cc1	satisfied
O=c1c2ccccc2sc2c(NCCCNCCO)nc3ccccc3c12	not satisfied
Cc1cccc(-c2nnc(SCC(=O)Nc3ncc(Cc4ccccc4)s3)n2N2C(=O)CSC2=S)c1	satisfied
COc1ccc(Cl)cc1Nc1nc(C(F)(F)F)ccc1C(=O)N/N=C/c1c(Cl)cccc1Cl	satisfied
CC(=O)Nc1cc2c(cc1Cl)Cc1cc(Cl)ccc1-2	satisfied
Nc1cc(Cl)c(S(N)(=O)=O)cc1S(N)(=O)=O	satisfied
O=C1NC(=Nc2ccc(Cl)cc2)S/C1=C\c1cn(-c2ccccc2)nc1-c1ccccc1	satisfied
OC(c1cc(-c2ccc(Cl)cc2)nc2c(Cl)cccc12)C1CCCCN1 (stereo unspecified)	not satisfied
Cc1ccc(NC(=O)N/C(N)=N/c2nc(=O)c3ccccc3s2)cc1	satisfied
O=C(NC(=S)Nc1ccc(Cl)cc1)c1ccccc1	satisfied
Cc1cccc2c1O/C(=C\c1ccc([N+](=O)[O-])o1)C2=O	not satisfied
COc1cc(/C=C/C(=O)c2cccc(-n3cc(-c4ccccc4)[nH]c3=O)c2)cc(OC)c1OC	not satisfied
O=C(CSc1nc2ccccc2[nH]1)Nc1cccc(Cl)c1	satisfied
Cc1c(-c2csc(-n3nc(C(F)(F)F)cc3C(F)(F)F)n2)no[n+]1[O-]	satisfied
N#CC(C#N)=Cc1cc2ccccc2nc1Oc1ccc(C(F)(F)F)cc1	satisfied
O=[N+]([O-])c1c(O)c(Cl)cc(Cl)c1Cl	satisfied
O=[N+]([O-])c1cc(Cl)c2[nH]c3c(Cl)cc([N+](=O)[O-])cc3c2c1	not satisfied
